Source listed as paper PMC6151589.

- experimental system: 5-HT2B (Homo sapiens, UniProt P41595)
- Construct: gene HTR2B; human recombinant receptor; crude membrane fractions of transfected HEK293 or CHO cells
- Sequence (P41595 whole entry): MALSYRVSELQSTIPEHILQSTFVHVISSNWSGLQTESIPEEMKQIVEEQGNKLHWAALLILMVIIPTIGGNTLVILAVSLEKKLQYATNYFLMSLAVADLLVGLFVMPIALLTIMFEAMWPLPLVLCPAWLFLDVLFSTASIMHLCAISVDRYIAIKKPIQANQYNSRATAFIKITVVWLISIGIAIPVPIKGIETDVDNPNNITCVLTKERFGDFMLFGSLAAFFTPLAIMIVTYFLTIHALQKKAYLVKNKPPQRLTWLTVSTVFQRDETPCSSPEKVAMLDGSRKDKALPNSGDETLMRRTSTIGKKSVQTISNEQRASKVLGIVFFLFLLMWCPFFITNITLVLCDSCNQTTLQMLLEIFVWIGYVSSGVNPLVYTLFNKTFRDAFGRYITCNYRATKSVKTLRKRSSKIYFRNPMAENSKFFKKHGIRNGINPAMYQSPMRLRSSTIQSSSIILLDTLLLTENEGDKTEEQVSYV
- test details: radioligand displacement, membranes
- Type: binding
property label: log10(Ki) (log10 of the value in nM)

molecule: C[C@@H]1CNCCN1c1ncc(F)c(OCc2ccc(F)cc2)n1 [4c]
log10(Ki): 1.15
//
molecule: C[C@@H]1CNCCN1c1ncc(F)c(OCc2ccccc2F)n1 [4a]
log10(Ki): 1.75
//
molecule: C[C@@H]1CNCCN1c1ncc(F)c(OCCCc2ccc(F)cc2)n1 [4g]
log10(Ki): 1.34
//
molecule: CC(Oc1nc(N2CCNC[C@H]2C)ncc1F)c1ccc(F)cc1 (mixture of isomers) [4e]
log10(Ki): 1.00
//
molecule: CC(Oc1nc(N2CCNC[C@H]2C)ncc1F)c1cccc(F)c1 (mixture of isomers) [4d]
log10(Ki): 0.68
//
molecule: C[C@@H]1CNCCN1c1ncc(F)c(OCc2cccc(F)c2)n1 [4b]
log10(Ki): 1.15
//
molecule: C[C@@H]1CNCCN1c1ncc(F)c(O[C@H](C)c2cccc(F)c2)n1 [(R,R)-4d]
log10(Ki): 0.41
//
molecule: CC(CCc1cccc(F)c1)Oc1nc(N2CCNC[C@H]2C)ncc1F (mixture of isomers) [4h]
log10(Ki): 1.20
//
molecule: CC(CCc1ccc(F)cc1)Oc1nc(N2CCNC[C@H]2C)ncc1F (mixture of isomers) [4i]
log10(Ki): 1.34
